tested on: Rhinovirus 17; assay: Anti-rhinovirus activity, cytopathic effect inhibition / neutral red dye uptake, type 17; format: cell-based; settings: Enterovirus, WI-38; Table II; read-out: MIC 50 Rhinovirus Type 17
This section presents molecules with their documented IC50 values.
State just the number; it will be interpreted in µg/mL.

>  <Compound Smiles>
c1ccc2c(c1)oc1ccc(OCCCCCCc3ccns3)cc12

>  <IC50 (µg/mL)>
10

$$$$
>  <Compound Smiles>
Cc1csc(CCCCCCCOc2ccc3oc4ccccc4c3c2)n1

>  <IC50 (µg/mL)>
5

$$$$
>  <Compound Smiles>
Cc1csc(CCCCCCOc2ccc3oc4ccccc4c3c2)n1

>  <IC50 (µg/mL)>
10

$$$$

Name the reported IC50 value associated with the molecule Cc1cc(CCCCCCCOc2ccc3oc4ccccc4c3c2)on1
10

====

system: Rhinovirus 88; assay: Anti-rhinovirus activity, cytopathic effect inhibition / neutral red dye uptake, type 88; format: cell-based; details: Enterovirus, WI-38; Table II; read-out: MIC 50 Rhinovirus Type 88
Endpoint Name: EC50 (µg/mL)
State just the number; it will be interpreted in µg/mL.

Sample answers from the record:
>  <Compound Smiles>
c1ccc2c(c1)oc1ccc(OCCCCCCc3ccns3)cc12

>  <Endpoint Name>
EC50

>  <Quantitative Readout>
10

$$$$
>  <Compound Smiles>
Cc1cnsc1CCCCCCOc1ccc2oc3ccccc3c2c1

>  <Endpoint Name>
EC50

>  <Quantitative Readout>
1

$$$$

Name the reported EC50 value associated with the compound Cc1cc(CCCCCCCOc2ccc3oc4ccccc4c3c2)on1
0.5

====

test system: Coxsacki-B1; experiment: Activity against other picornaviruses, Coxsacki-B1; format: cell-based; settings: Enterovirus, read-out: MIC 50 Cox. B1
Endpoint Name: IC50 (µg/mL)
State just the number; it will be interpreted in µg/mL.

>  <Compound>
Cc1csc(CCCCCCOc2ccc3oc4ccccc4c3c2)n1

>  <IC50 [µg/mL]>
10

$$$$

Name the reported IC50 value associated with the compound Cc1cc(CCCCCCCOc2ccc(C3=NCCO3)cc2)on1 [Disoxaril, reference compound]
10

Name the reported IC50 value associated with the compound Cc1cnsc1CCCCCCOc1ccc2oc3ccccc3c2c1
5

Name the reported IC50 value associated with the compound Cc1cc(CCCCCCCOc2ccc3oc4ccccc4c3c2)on1
10

Name the reported IC50 value associated with the compound Cc1csc(CCCCCCCOc2ccc3oc4ccccc4c3c2)n1
25

====

system: WI38 cells; assay: Toxicity to WI38 cells (change in morphology in / growth inhibition of 25% of the cells); assay type: cell-based; conditions: Table III
This section presents compounds with their documented Toxicity values.

Sample answers from the record:
>  <Compound>
Cc1cc(CCCCCCCOc2cc(C)nc3ccccc23)on1 [Compound 9]

>  <Toxicity>
50 µg/mL

$$$$
>  <Compound>
Cc1cc(CCCCCCCOc2ccc3oc4ccccc4c3c2)on1 [Compound 5]

>  <Toxicity>
100 µg/mL

$$$$
>  <Compound>
Cc1cnsc1CCCCCCOc1ccc2oc3ccccc3c2c1 [Compound 19]

>  <Toxicity>
50 µg/mL

$$$$
>  <Compound>
Cc1csc(CCCCCCCOc2ccc3oc4ccccc4c3c2)n1 [Compound 15]

>  <Toxicity>
50 µg/mL

$$$$
>  <Compound>
Cc1cc(CCCCCCCOc2ccc3c(c2)[nH]c2ccccc23)on1 [Compound 8]

>  <Toxicity>
25 µg/mL

$$$$

Name the reported Toxicity value associated with the compound Cc1cc(CCCCCCCOc2ccc(C3=NCCO3)cc2)on1 [Disoxaril, reference compound]
50 µg/mL

Name the reported Toxicity value associated with the compound Cc1csc(CCCCCCOc2ccc3oc4ccccc4c3c2)n1 [Compound 27]
50 µg/mL

Name the reported Toxicity value associated with the compound c1ccc2c(c1)oc1ccc(OCCCCCCc3ccns3)cc12 [Compound 25]
50 µg/mL

====

test system: WI38 cells; test: Toxicity to WI38 cells (change in morphology in / growth inhibition of 25% of the cells); assay type: cell-based; details: Table II
This section presents compounds with their documented Toxicity values.
State just the number; it will be interpreted in µg/mL.

Sample answers from the record:
>  <Compound>
Cc1cc(CCCCCCCOc2ccc3c(c2)[nH]c2ccccc23)on1

>  <Toxicity (µg/mL)>
25

$$$$
>  <Compound>
Cc1cnsc1CCCCCCOc1ccc2oc3ccccc3c2c1

>  <Toxicity (µg/mL)>
50

$$$$
>  <Compound>
Cc1cc(CCCCCCCOc2ccc3oc4ccccc4c3c2)on1

>  <Toxicity (µg/mL)>
100

$$$$
>  <Compound>
c1ccc2c(c1)oc1ccc(OCCCCCCc3ccns3)cc12

>  <Toxicity (µg/mL)>
50

$$$$
>  <Compound>
Cc1csc(CCCCCCCOc2ccc3oc4ccccc4c3c2)n1

>  <Toxicity (µg/mL)>
50

$$$$

Name the reported Toxicity value associated with the compound Cc1csc(CCCCCCOc2ccc3oc4ccccc4c3c2)n1
50

Name the reported Toxicity value associated with the compound Cc1cc(CCCCCCCOc2cc(C)nc3ccccc23)on1
50

Name the reported Toxicity value associated with the compound Cc1cc(CCCCCCCOc2ccc(C3=NCCO3)cc2)on1 [Disoxaril, reference compound]
50

====

This section presents compounds with their documented EC50 values.
test system: Rhinovirus 32; test: Anti-rhinovirus activity, cytopathic effect inhibition / neutral red dye uptake, type 32; format: cell-based; settings: Enterovirus, WI-38; Table II; read-out: MIC 50 Rhinovirus Type 32

Name the reported EC50 value associated with the compound c1ccc2c(c1)oc1ccc(OCCCCCCc3ccns3)cc12 [Compound 25]
10 µg/mL

Name the reported EC50 value associated with the compound Cc1cc(CCCCCCCOc2ccc(C3=NCCO3)cc2)on1 [Disoxaril, reference compound]
10 µg/mL

Name the reported EC50 value associated with the compound Cc1cnsc1CCCCCCOc1ccc2oc3ccccc3c2c1 [Compound 19]
> 25 µg/mL

Name the reported EC50 value associated with the compound Cc1cc(CCCCCCCOc2ccc3oc4ccccc4c3c2)on1 [Compound 5]
25 µg/mL

Name the reported EC50 value associated with the compound Cc1csc(CCCCCCCOc2ccc3oc4ccccc4c3c2)n1 [Compound 15]
> 25 µg/mL

Name the reported EC50 value associated with the compound Cc1cc(CCCCCCCOc2cc(C)nc3ccccc23)on1 [Compound 9]
10 µg/mL

Name the reported EC50 value associated with the compound Cc1csc(CCCCCCOc2ccc3oc4ccccc4c3c2)n1 [Compound 27]
10 µg/mL

====

tested on: WI38 cells; assay: Toxicity to WI38 cells (change in morphology in / growth inhibition of 25% of the cells); format: cell-based; details: Table I; concentration with change in morphology in 25% of WI38 cells
Endpoint Name: Toxicity (µg/mL)
State just the number; it will be interpreted in µg/mL.

>  <Compound>
c1ccc2c(c1)oc1ccc(OCCCCCCc3ccns3)cc12 [Compound 25]

>  <Assayed System>
WI38 cells

>  <Toxicity (µg/mL)>
50

$$$$

Now look at this one.
Name the reported Toxicity value associated with the compound Cc1cc(CCCCCCCOc2ccc3ccccc3c2)on1 [Compound 13]
50

====

This section presents compounds with their documented IC50 values.
system: Rhinovirus 17; assay: Anti-rhinovirus activity, cytopathic effect inhibition / neutral red dye uptake, type 17; assay type: cell-based; settings: Enterovirus, WI-38; Table II; read-out: MIC 50 Rhinovirus Type 17

Sample answers from the record:
>  <Compound>
Cc1cc(CCCCCCCOc2cc(C)nc3ccccc23)on1 [Compound 9]

>  <IC50>
> 25 µg/mL

$$$$
>  <Compound>
Cc1cnsc1CCCCCCOc1ccc2oc3ccccc3c2c1 [Compound 19]

>  <IC50>
> 25 µg/mL

$$$$
>  <Compound>
Cc1cc(CCCCCCCOc2ccc(C3=NCCO3)cc2)on1 [Disoxaril, reference compound]

>  <IC50>
< 0.5 µg/mL

$$$$

Now look at this one.
Name the reported IC50 value associated with the compound Cc1cc(CCCCCCCOc2ccc3c(c2)[nH]c2ccccc23)on1 [Compound 8]
> 25 µg/mL

====

test system: Rhinovirus 88; experiment: Anti-rhinovirus activity, cytopathic effect inhibition / neutral red dye uptake, type 88; type: cell-based; conditions: Enterovirus, WI-38; Table II; read-out: MIC 50 Rhinovirus Type 88
Endpoint Name: EC50

Sample answers from the record:
>  <Compound>
Cc1cc(CCCCCCCOc2cc(C)nc3ccccc23)on1 [Compound 9]

>  <Endpoint Name>
EC50

>  <Result>
< 0.5 µg/mL

$$$$
>  <Compound>
Cc1csc(CCCCCCCOc2ccc3oc4ccccc4c3c2)n1 [Compound 15]

>  <Endpoint Name>
EC50

>  <Result>
< 0.5 µg/mL

$$$$
>  <Compound>
Cc1csc(CCCCCCOc2ccc3oc4ccccc4c3c2)n1 [Compound 27]

>  <Endpoint Name>
EC50

>  <Result>
> 25 µg/mL

$$$$

Now look at this one.
Entry Cc1cc(CCCCCCCOc2ccc(C3=NCCO3)cc2)on1 [Disoxaril, reference compound] , system Rhinovirus 88: what EC50 was measured?
< 0.5 µg/mL
